Measured values drawn from patent EP0452101B1 for this set.

target: M1 muscarinic receptor (Rattus norvegicus, UniProt P08482); test: Displacement of 3H-PZ from rat cerebral cortex, 10 mM phosphate buffer; assay type: binding; design: from tissue; host or cells: rat cerebral cortex homogenates; conditions: cortex, Table 4
Sequence (P08482 whole entry): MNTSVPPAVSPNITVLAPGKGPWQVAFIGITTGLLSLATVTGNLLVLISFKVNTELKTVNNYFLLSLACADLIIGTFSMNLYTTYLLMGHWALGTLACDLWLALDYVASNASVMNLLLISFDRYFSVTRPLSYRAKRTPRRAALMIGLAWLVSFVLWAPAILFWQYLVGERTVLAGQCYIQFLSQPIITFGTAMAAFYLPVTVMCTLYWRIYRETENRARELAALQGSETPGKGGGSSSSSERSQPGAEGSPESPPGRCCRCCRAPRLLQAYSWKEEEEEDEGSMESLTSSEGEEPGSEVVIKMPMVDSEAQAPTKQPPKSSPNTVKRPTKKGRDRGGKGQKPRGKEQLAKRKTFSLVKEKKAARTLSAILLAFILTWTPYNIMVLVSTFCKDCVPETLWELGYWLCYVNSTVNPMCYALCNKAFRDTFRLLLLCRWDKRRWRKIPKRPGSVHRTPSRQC
Listed next: entries and their corresponding % H.
Field format: number, assumed %, no unit text.

Compound	Recorded Number
CCC1=NCC2(CN3CCC2CC3)O1 (racemic)	100
c1ccc(C2=NCC3(CN4CCC3CC4)O2)cc1 (centres unmarked)	100
CC1OC2(CS1)CN1CCC2CC1 (centres unmarked) [AF102B, reference compound]	100
CC1=NCC2(CCN(C)CC2)O1	24

// field: % H; key: NC1=NCC2(CN3CCC2CC3)O1 (centres unmarked) ; value = 28

----------
Target: M2 muscarinic receptors (Rattus norvegicus)
Construct: displacing from rat brain homogenates, cerebellum or frontal cortex; from tissue; host or cells: rat cerebellum homogenates
Sequence (P10980 1-466): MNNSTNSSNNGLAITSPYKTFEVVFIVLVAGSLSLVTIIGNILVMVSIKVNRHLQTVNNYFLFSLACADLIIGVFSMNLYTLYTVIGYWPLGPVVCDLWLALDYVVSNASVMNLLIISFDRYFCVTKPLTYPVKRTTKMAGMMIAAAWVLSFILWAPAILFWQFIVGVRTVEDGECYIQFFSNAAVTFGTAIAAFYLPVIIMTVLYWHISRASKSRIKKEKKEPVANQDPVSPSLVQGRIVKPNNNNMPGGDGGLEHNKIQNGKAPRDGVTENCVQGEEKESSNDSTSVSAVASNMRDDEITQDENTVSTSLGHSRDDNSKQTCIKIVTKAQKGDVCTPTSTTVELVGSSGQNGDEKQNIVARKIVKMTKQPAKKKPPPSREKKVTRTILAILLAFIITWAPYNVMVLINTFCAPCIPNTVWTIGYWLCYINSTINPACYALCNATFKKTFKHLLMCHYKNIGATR
Assay: Displacement of 3H-QNB from rat cerebellum, 50 mM phosphate buffer
Format: binding
Conditions: cerebellum, Table 5; read-out: 3H-QNB-Binding KL2 (d)
Value Kind: pKi
Note: pKi values are expressed as the negative base-10 logarithm of concentration in M.

Fill in: M2 muscarinic receptors (Rattus norvegicus) pKi for CC1=NCC2(CCN(C)CC2)O1 [AF150] = 4.08

----------
target: M1 muscarinic receptor (Rattus norvegicus, UniProt P08482); assay: Displacement of 3H-PZ from cortical binding sites, Tris/Mn buffer, with and without GppNHp; set-up: from tissue; host or cells: rat cerebral cortex homogenates; settings: -G; read-out: KL
Value Kind: Ki (µM)
Field format: number, assumed µM, no unit text.

# count of solved cases: 2
Compound	Ki [µM]
CC1=NCC2(CN3CCC2CC3)O1 (racemic)	12
CC1=NC2(CCN(C)CC2)CO1	4.8

# next compound below
// field: Ki; key: `CC1=NCC2(CCN(C)CC2)O1` ; value = 11

----------
target: M1 muscarinic receptor (Rattus norvegicus); assay: Displacement of 3H-PZ from cortical binding sites, Tris/Mn buffer, with and without GppNHp; set-up: from tissue; host or cells: rat cerebral cortex homogenates; conditions: KH, -G (without GppNHp)
Value Kind: Ki
Hey, just the number and the unit after it is fine.

// field: Ki; key: C[N+](C)(C)CC#CCN1CCCC1=O [Oxotremorine-M, reference compound] ; value = 110 nM

----------
Listed next: entries and their corresponding Ki.
Target: M2 muscarinic receptors (Rattus norvegicus)
Construct: displacing from rat brain homogenates, cerebellum or frontal cortex; from tissue; host or cells: rat cerebellum homogenates
Sequence (P10980 1-466): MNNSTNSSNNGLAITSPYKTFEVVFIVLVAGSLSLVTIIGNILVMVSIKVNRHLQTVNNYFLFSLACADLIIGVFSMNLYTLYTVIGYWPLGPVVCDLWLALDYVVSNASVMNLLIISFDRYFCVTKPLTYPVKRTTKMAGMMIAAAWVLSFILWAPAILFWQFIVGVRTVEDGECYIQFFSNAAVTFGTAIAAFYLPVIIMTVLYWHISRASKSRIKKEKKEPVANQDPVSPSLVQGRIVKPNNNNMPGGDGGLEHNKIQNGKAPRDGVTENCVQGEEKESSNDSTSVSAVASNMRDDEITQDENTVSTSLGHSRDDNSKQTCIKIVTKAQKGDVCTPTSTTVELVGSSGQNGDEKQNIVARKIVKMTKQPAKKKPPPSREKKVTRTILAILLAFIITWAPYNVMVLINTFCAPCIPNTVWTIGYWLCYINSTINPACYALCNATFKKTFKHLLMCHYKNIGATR
Test: Displacement of 3H-QNB from rat cerebellum, 50 mM phosphate buffer
Type: binding
Details: 3H-QNB-Binding KH2 (c), cerebellum, Table 5
Hey, just the number and the unit after it is fine.

# count of solved cases: 3
Compound	Ki
O=C1CCCN1CC#CCN1CCCC1	14 nM
CC1OC2(CS1)CN1CCC2CC1 (stereo not shown) [AF102B, reference compound]	5900 nM
C[N+](C)(C)CC#CCOC(=O)Nc1cccc(Cl)c1	11000 nM

// field: Ki; key: C[N+](C)(C)CC#CCN1CCCC1=O [Oxotremorine-M, reference compound] ; value = 69 nM
